Assay read-out IC50 on Amine oxidase [flavin-containing] B (Rattus norvegicus, UniProt P19643); records merged from the literature.
target.of.assay: Amine oxidase [flavin-containing] B (Rattus norvegicus, UniProt P19643)
Sequence (P19643 whole entry): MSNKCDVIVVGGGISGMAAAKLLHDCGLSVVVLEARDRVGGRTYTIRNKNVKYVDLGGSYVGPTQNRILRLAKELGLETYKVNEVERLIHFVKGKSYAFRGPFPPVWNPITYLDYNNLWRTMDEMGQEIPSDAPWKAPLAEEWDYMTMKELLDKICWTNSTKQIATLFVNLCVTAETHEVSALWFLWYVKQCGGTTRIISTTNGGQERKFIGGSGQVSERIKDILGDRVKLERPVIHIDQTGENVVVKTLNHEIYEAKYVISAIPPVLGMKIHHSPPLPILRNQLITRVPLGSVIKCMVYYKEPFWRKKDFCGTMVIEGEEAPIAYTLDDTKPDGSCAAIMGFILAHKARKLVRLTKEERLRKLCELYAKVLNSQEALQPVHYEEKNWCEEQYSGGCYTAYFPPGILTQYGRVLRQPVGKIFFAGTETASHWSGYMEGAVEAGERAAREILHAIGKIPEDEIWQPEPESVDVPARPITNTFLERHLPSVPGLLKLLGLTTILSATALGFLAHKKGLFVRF
Provide only the numeric value, understood in µM.

NC(=O)CNCc1ccc(OCc2cccc(Cl)c2)cc1	0.34
CNC(=O)Cc1cc(=O)oc2cc(OS(=O)(=O)c3cccc(Cl)c3)ccc12	8.3
O=C(C/C=C/c1ccc(Cl)c(Cl)c1)Nc1nc2ccccc2c(=O)s1	4.64
Cn1c(N/N=C(/C=C/c2ccco2)c2ccc(Cl)cc2)nc2ccccc2c1=O	400
CCNC(=S)N1NC2=C(CCCC2)C1c1cccs1 (stereo unspecified)	90.1
S=C(Nc1ccccc1)N1NC2=C(CCCC2)C1c1cccs1 (stereo unspecified)	75.1
COc1cc(C2CC(c3ccccc3O)=NN2C(=S)Nc2ccccc2C)ccc1O (stereo unspecified)	198
Cn1c(N/N=C(/C=C/c2ccc(Cl)cc2)c2ccccc2)nc2ccccc2c1=O	378
COc1cc(-c2cc3c(nn2)-c2ccccc2C3=O)ccc1O	10
NC(=O)CNCc1ccc(OCc2ccc(Cl)cc2)cc1	7.1

Consider the record given below.
Query: Query (molecule): `O=C(Cc1cc(=O)oc2cc(OCc3cccc(Cl)c3)ccc12)NCc1ccccc1` ; field requested: IC50
Response: 5

---

Assay read-out pIC50 on Amine oxidase [flavin-containing] B (Rattus norvegicus); records merged from the literature.
pIC50: −log10 of the molar value.
Please enter YES where pIC50 is greater than or equal to 5, and NO where it is lower.

See these solved cases before continuing.
CCCNC(=O)CCCCc1ccc2c(c1)OCO2	NO
CNC(=O)/C=C1/COc2cc(OCc3cccc(Cl)c3)ccc21	YES
CCCCNC(=O)CCCCc1ccc2c(c1)OCO2	YES
C[C@@H](C(N)=O)N1CCc2cc(OCc3cccc(F)c3)ccc2C1	YES
COc1ccc(NC(=S)N2N=C(c3ccccc3O)CC2c2ccccc2O)cc1 (stereo unspecified)	NO

With those in mind, consider the next compound.
Query: Given Cc1ccccc1NC(=S)N1N=C(c2ccccc2O)CC1c1ccc(O)cc1 (stereo unspecified) , state whether its pIC50 is at least 5.
Response: NO

---

Assay read-out pIC50 on Amine oxidase [flavin-containing] B (Rattus norvegicus); records merged from the literature.
// pIC50 is dimensionless: -log10 of concentration (M)

COc1ccc(NC(=S)N2N=C(c3ccccc3O)CC2c2ccc(O)cc2)cc1 (configuration not stated)	4.39
O=C1c2ccccc2-c2nnc(-c3ccccc3C(F)(F)F)cc21	5.00
Cc1c(C)c2ccc(OC[C@@H](O)c3ccccc3)cc2oc1=O	7.55
O=C1c2ccccc2-c2nn(-c3ccccc3)c(=O)cc21	4.42
Cc1c(C)c2ccc(OCCOc3ccccc3)cc2oc1=O	7.57
Oc1ccc(C2=NN(C(=S)Nc3ccccc3)C(c3ccc(O)cc3)C2)cc1 (configuration not stated)	3.31
Cc1cc2ccc(OCc3cccc(Cl)c3)cc2oc1=O	8.29
NC(=S)N1NC2=C(CCCC2)C1c1cccs1 (configuration not stated)	5.90

Query: Query (compound): `NC(=O)[C@H](CO)NCc1ccc(OCc2ccc([N+](=O)[O-])cc2)cc1` ; field requested: pIC50
Response: 5.15

Query: Query (compound): `C[C@H](NCc1cc(=O)oc2cc(OCc3ccccc3)ccc12)C(N)=O` ; field requested: pIC50
Response: 5.74

Query: Query (compound): `NCc1ccncc1NC1CC1` ; field requested: pIC50
Response: 4.05

---

Assay read-out IC50 on Amine oxidase [flavin-containing] B (Rattus norvegicus, UniProt P19643); records merged from the literature.
Provide only the numeric value, understood in µM.

Past entries and their recorded results:
O=C(NCCN1CCOCC1)c1cncc(Br)c1	55
CCCCCS(=O)(=O)Oc1ccc2c(C)c(C)c(=O)oc2c1	2.2

Consider the record given below.
Query: Enter reported IC50 observed with Amine oxidase [flavin-containing] B (Rattus norvegicus, UniProt P19643) for `CN(C)Cc1cc(=O)oc2cc(OCc3ccccc3)ccc12`
Response: 1.8

---

target.of.assay: Amine oxidase [flavin-containing] B (Rattus norvegicus, UniProt P19643)
Sequence (P19643 whole entry): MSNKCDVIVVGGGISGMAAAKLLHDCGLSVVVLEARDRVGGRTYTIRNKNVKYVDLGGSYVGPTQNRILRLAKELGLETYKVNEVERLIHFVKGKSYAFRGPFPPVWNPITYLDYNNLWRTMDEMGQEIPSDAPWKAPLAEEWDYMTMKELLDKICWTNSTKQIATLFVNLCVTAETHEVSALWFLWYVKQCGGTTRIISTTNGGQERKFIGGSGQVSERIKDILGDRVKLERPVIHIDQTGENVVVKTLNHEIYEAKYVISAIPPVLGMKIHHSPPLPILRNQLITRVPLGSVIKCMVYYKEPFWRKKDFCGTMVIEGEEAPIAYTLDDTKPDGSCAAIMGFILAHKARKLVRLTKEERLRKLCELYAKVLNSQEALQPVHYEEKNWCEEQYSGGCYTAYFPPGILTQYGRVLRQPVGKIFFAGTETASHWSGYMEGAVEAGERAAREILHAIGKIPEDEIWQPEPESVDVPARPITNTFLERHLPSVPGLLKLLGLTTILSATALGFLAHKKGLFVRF
Assay read-out pIC50 on Amine oxidase [flavin-containing] B (Rattus norvegicus, UniProt P19643); records merged from the literature.
// pIC50 is dimensionless: -log10 of concentration (M)

Past entries and their recorded results:
c1ccc(-c2cc3c(nn2)-c2ccccc2C3)cc1	4.63
COc1ccc(NC(=S)N2N=C(c3ccc(O)cc3O)CC2c2ccc(O)cc2)cc1 (configuration not stated)	3.34
Cc1c(C)c2ccc(OC/C=C/c3ccccc3)cc2oc1=O	6.95
CCCNc1cncc(N(C)CCC)c1CN	4.70
Cc1cc2ccc(OCc3ccccc3)cc2oc1=O	8.18
Cc1ccccc1NC(=S)N1N=C(c2ccccc2O)CC1c1ccccc1O (configuration not stated)	3.74
N#CCc1cc(=O)oc2cc(OCc3ccccc3)ccc12	6.64
O=C1c2ccccc2-c2nnc3c(c21)CCCC3	4.00
O=C(c1ccccc1)c1c(-c2ccccc2)nnc2c1C(=O)c1ccccc1-2	5.11

Query: Query (compound): `O=C(/C=C/c1cccc(Cl)c1)Nc1nc2ccccc2c(=O)s1` ; field requested: pIC50
Response: 6.09

---

Assay read-out IC50 on Amine oxidase [flavin-containing] B (Rattus norvegicus, UniProt P19643); records merged from the literature.
Threshold 1 µM: IC50 strictly smaller gives class 1, otherwise class 0.

See these solved cases before continuing.
CCOc1ccccc1CN	class 0
Cc1nnc(COc2ccc3c(C)c(C)c(=O)oc3c2)o1	class 1
O=C(O)c1ccc(-c2cc3c(nn2)-c2ccccc2C3=O)cc1	class 0
NC(=O)[C@H](CO)Nc1cc(=O)oc2cc(OCc3cccc(Cl)c3)ccc12	class 0
O=C(NCCCN1CCOCC1)c1ccc[nH]c1=O	class 0
O=C(CCc1ccccc1Br)Nc1nc2ccccc2c(=O)s1	class 1
O=C(NCCN1CCOCC1)c1cnccc1Cl	class 0
C[C@H](C(N)=O)N1CCc2cc(OCc3cccc(F)c3)ccc2C1	class 1
Cn1c(NN)nc2ccccc2c1=O	class 0
Cc1ccc(C(=O)NCCCN2CCOCC2)c(Cl)n1	class 0

Query: Decide: IC50 of `Cc1c(C)c2ccc(/C=C/c3ccccc3)cc2oc1=O` strictly below 1 µM?
Response: class 1

Query: Decide: IC50 of `COc1cccc(CCCC(=O)Nc2nc3ccccc3c(=O)s2)c1` strictly below 1 µM?
Response: class 0

Query: Decide: IC50 of `NC(=O)CNCc1ccc(OCc2cccc(F)c2)cc1` strictly below 1 µM?
Response: class 0

---

target.of.assay: Amine oxidase [flavin-containing] B (Rattus norvegicus)
Sequence (P19643 whole entry): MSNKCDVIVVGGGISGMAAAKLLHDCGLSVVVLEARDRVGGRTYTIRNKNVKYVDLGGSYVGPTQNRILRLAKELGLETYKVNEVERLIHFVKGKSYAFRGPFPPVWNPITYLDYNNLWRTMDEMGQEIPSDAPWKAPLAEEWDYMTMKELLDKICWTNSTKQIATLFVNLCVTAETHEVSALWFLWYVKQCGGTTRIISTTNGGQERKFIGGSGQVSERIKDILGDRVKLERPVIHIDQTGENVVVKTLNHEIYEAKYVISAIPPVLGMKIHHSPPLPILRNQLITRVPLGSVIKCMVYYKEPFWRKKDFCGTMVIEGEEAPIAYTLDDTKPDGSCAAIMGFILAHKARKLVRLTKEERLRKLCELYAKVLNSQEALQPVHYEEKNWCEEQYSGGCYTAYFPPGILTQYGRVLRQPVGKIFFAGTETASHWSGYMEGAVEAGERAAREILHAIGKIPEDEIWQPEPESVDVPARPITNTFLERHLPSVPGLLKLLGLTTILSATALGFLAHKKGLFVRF
pIC50: −log10 of the molar value.
Assay read-out pIC50 on Amine oxidase [flavin-containing] B (Rattus norvegicus); records merged from the literature.
Please enter condition met where pIC50 is greater than or equal to 6, and condition not met where it is lower.

O=c1cc(CCN2CCCCC2)c2ccc(OCc3cccc(Cl)c3)cc2o1	condition not met
O=C(/C=C/C=C/c1ccc(O)c(O)c1)N1CCCCC1	condition not met
CCN(CC)C(=O)/C=C/C=C/c1ccc2c(c1)OCO2	condition met
OCCNc1nc2ccccc2nc1Cc1ccccc1	condition not met
O=c1ccoc2ccc(OCc3ccccc3)cc12	condition met
NC(=S)N1N=C(c2ccccc2O)CC1c1ccc(O)cc1 (configuration not stated)	condition not met

Query: Given `CCSc1cncc(SCC)c1CN` , state whether its pIC50 is at least 6.
Response: condition not met

Query: Given `Cc1c(C)c2ccc(OCc3ccc(F)c(O)c3)cc2oc1=O` , state whether its pIC50 is at least 6.
Response: condition met

Query: Given Oc1ccccc1C1=NN(C(=S)Nc2ccccc2)C(c2ccccc2Cl)C1 (configuration not stated) , state whether its pIC50 is at least 6.
Response: condition not met

Query: Given `O=c1oc2cc(OCc3ccccc3)ccc2s1` , state whether its pIC50 is at least 6.
Response: condition not met
